- Procedure Summary: in vitro
- Measurement Context: human, hela cells, % viability
Kindly state viability at 28.5 h, 10 µM for each of the entries shown.
Please answer in the form of a number followed by its unit of measurement.

Worked cases, answers included:
CCN1CCC(CC(=O)N2CCC(c3ccccc3)C2)CC1 (centres unmarked) | 79.5%
CC1(C)CCCC2=C1CC(C(=O)O)C(C(=O)O)C2 (centres unmarked) | 97.4%
CCNC(=O)N1CC(C)N(CCCC(c2ccc(F)cc2)c2ccc(F)cc2)CC1C (centres unmarked) [CBK024912C] | 105%
CC(SCCc1ccccn1)C(=O)O (centres unmarked) | 109%
CCOC(=O)c1c(NC(=O)Cn2nc([N+](=O)[O-])c(Cl)c2C)sc2c1CCC(C)C2 (centres unmarked) | 94.2%
Cc1cc2c(SCc3cc(O)[nH]n3)ncnc2s1 | 93.9%
CC(=O)c1ccc(NC(=O)CSc2nc(O)cc(-c3ccccc3)n2)cc1 | 96%
CCC(C)c1ccc(NC(=O)CSc2nc3cccnc3[nH]2)cc1 (centres unmarked) | 86.9%

Each molecule below has a reported value. Please supply its viability at 28.5 h, 10 µM.
1. COc1ccc(S(=O)(=O)NCCNC(=O)c2cc(-c3cccnc3)cnc2NCc2ccc3c(c2)OCO3)cc1
2. CCC(CNC(=O)c1cccc(C)n1)N1CCCC1 (centres unmarked)
3. C[C@@H]1CN2C[C@H](O)CC2CN1Cc1cccc(C(F)(F)F)c1 (some centres unmarked)

1: 101%; 2: 116%; 3: 91.7%

Batch of 3 molecules: report viability at 28.5 h, 10 µM for each.
1. COc1ccc(Cl)cc1C1(CNC(=O)C2CCC(N)C2)CCOCC1 (centres unmarked)
2. CN1C(=O)CC2(C1=O)C(=O)N(CCCOc1ccc(F)cc1)c1ccccc12 (centres unmarked)
3. c1nc(N2CCOCC2)c2cn[nH]c2n1

["85.9%", "108%", "86.3%"]

Please give viability at 28.5 h, 10 µM, item by item, for the list that follows.
1. CNC(=O)Nc1cccc(S(N)(=O)=O)c1
2. FC(F)(F)c1cccc(-n2cc(-c3cccnc3)nn2)c1
3. O=C(NCCN1CCOCC1)c1ccc(Nc2cncc(-c3ccc(O)cc3)n2)cc1
4. O=C(/C=C/c1ccco1)Nc1cc2ccccc2cc1NC(=O)/C=C/c1ccco1
5. COc1ccc2c(c1)c(C)c(C(=O)N1CCCCC1CN(C)C)n2C (centres unmarked)
6. Cc1nn(C(C)C)c(C)c1CN1CCC(c2c(C(=O)NC(C)C)sc3ccccc23)C1 (centres unmarked)

["89.1%", "86%", "77.1%", "99.5%", "90.1%", "95.5%"]
